Target: 1-phosphatidylinositol 4,5-bisphosphate phosphodiesterase beta-3 (Homo sapiens)
Assay: phospholipase C beta3 enzyme inhibition – biochemical, fluorescence, primary screen (AID 720704);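 note: 0% = median of compound wells on plate and 100% = full blocker control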
Conditions: Purified PLC-beta3, fluorogenic substrate, at 12.2 µM
In all, about 370,000 compounds went through this assay and about 660 (0.18%) were called active. Cut-off read from the data, not from the text of the source: active = inhibition above about 11%; inactive = the rest. The sample holds actives, similar compounds and a random draw of the others, so the mix is not that of the screen.
Pick from active, inactive when you respond.

Here's what some known entries look like.
COCCCn1cc(CN2CC(N(C)C)CS2(=O)=O)nn1 (stereo not given) | inactive
Cc1cccc(OCc2nnc(SCc3nc4cc(C(F)(F)F)ccc4c(=O)[nH]3)o2)c1 | inactive
C=CCSc1nc2c(c(=O)[nH]1)C(C(C)C)C(C#N)=C(N)O2 (stereo not given) | inactive
COc1ccc([N+](=O)[O-])cc1N(CC(O)Cn1nnc2ccccc21)S(=O)(=O)c1ccc(C)cc1 (stereo not given) | active

Then there is this compound:
GET /call?item= `CCN(CC(=O)Nc1ccc2c(c1)OCCO2)Cc1cc(=O)oc2cc(C)c(C)cc12` returns the recorded outcome of this test.
inactive

====

Could you please report measured inhibition for the items listed next?
Molecular target: 1-phosphatidylinositol 4,5-bisphosphate phosphodiesterase beta-3 (Homo sapiens)
Assay: phospholipase C beta3 enzyme inhibition – biochemical, fluorescence, primary screen (AID 720704);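 note: 0% = median of compound wells on plate and 100% = full blocker control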
Conditions: Purified PLC-beta3, fluorogenic substrate, at 12.2 µM, hits give high values
The campaign covered roughly 370,000 compounds. About 660 (0.18%) were called active. The full list was thinned out, with actives kept by preference.
Answers are plain numbers, in %.

Sample records with inhibition:
O=C(NC1CC1)C1CCCN(C(=O)NC2CCCCC2)C1 (stereo not given) | -7.45
O=C(CSc1nc2ccccc2o1)N1CCN(c2ccc(Cl)cc2)CC1 | -0.03
CSCCC(NC(=O)c1cc([N+](=O)[O-])cc([N+](=O)[O-])c1)c1nc2ccccc2[nH]1 (stereo not given) | -1.97
COc1cc(OC)c(-n2cc(-c3ccc(Cl)cc3)[nH]c2=O)cc1Cl | 1.76
COc1cccc(NC(=O)C(Sc2nc3ccccc3c(=O)n2CC(C)C)c2ccccc2)c1 (stereo not given) | 0.44
C=CCN1[C@H](CC(C)C)COc2cccc(N3CCCC3)c2S1(=O)=O | -10.8
CCN(C(=O)COc1cccnc1[N+](=O)[O-])C1CCS(=O)(=O)C1 (stereo not given) | 3.82
CC(C)c1ccc(Nc2nnc(SCC(=O)c3nnc(-c4ccccc4)o3)s2)cc1 | -19.6
CN1C(CC(=O)Nc2ccc(Br)cc2)c2ccccc2CC1(C)C (stereo not given) | -1.47

Here is the next item to consider.
Need inhibition of CCOCCCNC(=O)C1(O)c2cc(Br)ccc2NC(=O)N1c1ccc(C)c(C)c1 (stereo not given) , thanks.
0.25

====

Molecular target: 1-phosphatidylinositol 4,5-bisphosphate phosphodiesterase beta-3 (Homo sapiens)
Assay: phospholipase C beta3 enzyme inhibition – biochemical, fluorescence, primary screen (AID 720704);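 note: 0% = median of compound wells on plate and 100% = full blocker control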
Conditions: Purified PLC-beta3, fluorogenic substrate, at 12.2 µM
Hit rate of the full screen: of about 370,000 compounds, about 660 (0.18%) were called active. Cut-off read from the data, not from the text of the source: active = inhibition above about 11%; inactive = the rest. The full list was thinned out, with actives kept by preference.
# valid calls are yes for active, no for inactive; nothing else

Completed entries (count: 5):
O=C(Nc1c(C(=O)N2CCCCC2)cnn1-c1ccccc1)c1ccco1 | no
Cc1ccc(-c2nc(CS(=O)(=O)CC(=O)NCc3ccc4c(c3)OCO4)c(C)o2)cc1 | no
Cc1nnc(SC(C)C(=O)Nc2ccc(S(=O)(=O)NC3CCCCC3)cc2)s1 (configuration not stated) | no
Cn1ncc2c(NNC(=O)Cc3cccc4ccccc34)ncnc21 | no
CN(C(=O)c1cccc(NC(=O)Cc2cccc([N+](=O)[O-])c2)c1)C1CCCCC1 | yes

Now let's try a different one.
Answer briefly: the call reported for `CCC(=O)c1ccc(N2CCN(C(=O)c3cc([N+](=O)[O-])ccc3F)CC2)c(F)c1` in this assay.
no
